Just for reference, patent US9890152B2 is where these values come from.

Kindly supply the reported Ki values for the records listed here.
Molecular target: EGFR del746-750 T790M (Homo sapiens, UniProt P00533, DEL746-750/T790M)
Sequence (P00533 with tags, fused parts or gaps DEL746-750/T790M limits assumed): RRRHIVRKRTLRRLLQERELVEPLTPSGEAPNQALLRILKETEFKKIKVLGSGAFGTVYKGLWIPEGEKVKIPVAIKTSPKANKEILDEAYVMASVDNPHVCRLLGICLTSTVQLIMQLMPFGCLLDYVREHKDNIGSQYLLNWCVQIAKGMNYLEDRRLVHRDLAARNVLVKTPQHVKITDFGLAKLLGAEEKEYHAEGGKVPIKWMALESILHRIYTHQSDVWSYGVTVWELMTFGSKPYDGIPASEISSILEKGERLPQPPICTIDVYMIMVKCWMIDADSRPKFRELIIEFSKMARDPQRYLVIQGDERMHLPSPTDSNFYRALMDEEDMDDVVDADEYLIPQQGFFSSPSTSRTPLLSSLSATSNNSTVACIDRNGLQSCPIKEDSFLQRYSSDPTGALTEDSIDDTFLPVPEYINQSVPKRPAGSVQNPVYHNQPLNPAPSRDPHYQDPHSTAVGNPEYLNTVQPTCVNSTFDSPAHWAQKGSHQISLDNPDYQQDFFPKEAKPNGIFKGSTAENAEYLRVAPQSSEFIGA
Test: EGFR del746-750 T790M biochemical assay (Caliper mobility shift)
Details: 5 μM ATP, 30 min, room temperature; apparent Ki (Morrison) converted by Cheng-Prusoff, Km of ATP 2.1 μM; read-out: EGFR(T790M/d746-750) Ki
Please reply with the bare figure in µM and do not write the unit itself.

Just so you know, measured Ki for C[C@H](n1c([C@@H](C)O)nc2cnc(Nc3ccnc(N4C[C@@H](F)[C@@H](O)[C@@H](F)C4)n3)cc21)C(F)(F)F [Example 701] came out at 0.0044

Just so you know, measured Ki for CC(n1cc(C(=O)NC2CCOCC2)c2cnc(Nc3ccnc(-c4cnn(S(=O)(=O)C5CC5)c4)n3)cc21)C(F)(F)F (stereo not shown) [Example 635] came out at 0.00453

Just so you know, measured Ki for Cc1nc2cnc(Nc3ccnc(N4CC[C@H](F)C4)n3)cc2n1C(C)C [Example 592] came out at 0.0575

Just so you know, measured Ki for CCS(=O)(=O)n1cc(-c2nccc(Nc3cc4c(cn3)c(C(=O)NC3COC3)cn4C(C)C)n2)cn1 [Example 448] came out at 0.00062

Just so you know, measured Ki for CC1CC1n1c(CO)nc2cnc(Nc3ccnc(-c4cnn(S(=O)(=O)C5CC5)c4)n3)cc21 (stereo not shown) [Example 698] came out at 0.00702

Just so you know, measured Ki for CO[C@@H]1CCN(c2nccc(Nc3cc4c(cn3)c(C(=O)NC3CCOCC3)cn4C(C)C)n2)C[C@@H]1F [Example 380] came out at 0.00696

Just so you know, measured Ki for Cc1nc2cnc(Nc3ccnc(-c4cn(C)nc4N)n3)cc2n1C(C)C [Example 363] came out at 0.031

Just so you know, measured Ki for CC(C)n1c(CO)nc2cnc(Nc3ccnc(-c4cnn(S(=O)(=O)C5CC5)c4)n3)cc21 [Example 272] came out at 0.00212

Just so you know, measured Ki for CC(C)n1c(Cl)c(C(=O)NC2CCOCC2)c2cnc(Nc3ccnc(-c4cnn(S(=O)(=O)C5CC5)c4)n3)cc21 [Example 262] came out at 0.00148

Just so you know, measured Ki for Cc1nc2cnc(Nc3ccnc(N4CCc5cn[nH]c5C4)n3)cc2n1C(C)C [Example 651] came out at 0.00914

Just so you know, measured Ki for C[C@H](n1c([C@@H](C)O)nc2cnc(Nc3ccnc(NCC(C)(C)S(C)(=O)=O)n3)cc21)C(F)(F)F [Example 663] came out at 0.0145

Just so you know, measured Ki for CCN1CCN(C(=O)c2cn(C(C)C)c3cc(Nc4ccnc(N5CCC(OC)CC5)n4)ncc23)CC1 [Example 122] came out at 0.1

Just so you know, measured Ki for CCC(C)n1cc(C(=O)NC2CCCOC2)c2cnc(Nc3ccnc(N4CCC(O)C(C)(C)C4)n3)cc21 (stereo not shown) [Example 374] came out at 0.00331

Just so you know, measured Ki for CO[C@@H]1CCN(c2nccc(Nc3cc4c(cn3)nc(CO)n4C(C)C)n2)C[C@@H]1C (racemic) [Example 632] came out at 0.326

Just so you know, measured Ki for Cc1nc2cnc(Nc3ccnc(N4CCC(O)C(C)(C)C4)n3)cc2n1C(C)C (stereo not shown) [Example 427] came out at 0.119

Just so you know, measured Ki for O=C1CC(n2c(CO)nc3cnc(Nc4ccnc(-c5cnn(S(=O)(=O)C6CC6)c5)n4)cc32)CN1 (stereo not shown) [Example 694] came out at 0.709

Just so you know, measured Ki for CC(C)n1c(CO)nc2cnc(Nc3ccnc(N4CC[C@H](O)[C@H](C(F)(F)F)C4)n3)cc21 (racemic) [Example 626] came out at 1.25

Just so you know, measured Ki for CO[C@@H]1CCN(c2nccc(Nc3cc4c(cn3)nc(CO)n4[C@@H](C)C(F)(F)F)n2)C[C@@H]1F [Example 657] came out at 0.0174

Just so you know, measured Ki for CC(C)n1c(CO)nc2cnc(Nc3ccnc(OCC(C)(C)S(C)(=O)=O)n3)cc21 [Example 660] came out at 0.171

Just so you know, measured Ki for COC1CCN(c2nccc(Nc3cc4c(cn3)c(-c3cnn(CC(N)=O)c3)cn4C(C)C)n2)CC1 [Example 410] came out at 0.00486

Just so you know, measured Ki for CO[C@H]1CCN(c2nccc(Nc3cc4c(cn3)nc(CO)n4C(C)C)n2)C[C@H]1F [Example 655] came out at 0.0608

Just so you know, measured Ki for CO[C@@H]1CCN(c2nccc(Nc3cc4c(cn3)nc([C@@H](C)O)n4C(C)C)n2)C[C@@H]1F [Example 659] came out at 0.0393

Just so you know, measured Ki for Cc1nc2cnc(Nc3ccnc(-c4cnn(S(=O)(=O)C(C)C)c4)n3)cc2n1C(C)C [Example 409] came out at 0.00197

Just so you know, measured Ki for Cc1nc2cnc(Nc3ccnc(N4CC[C@](C)(O)[C@H](F)C4)n3)cc2n1C(C)C [Example 672] came out at 0.135

Just so you know, measured Ki for Cc1nc2cnc(Nc3ccnc(-c4cnc(N(C)C)s4)n3)cc2n1C(C)C [Example 317] came out at 0.00297

Just so you know, measured Ki for CC(C)n1c(CO)nc2cnc(Nc3ccnc(N4CC[C@](C)(O)[C@H](F)C4)n3)cc21 (racemic) [Example 619] came out at 0.146

Just so you know, measured Ki for Cc1nc2cnc(Nc3ccnc(-c4cnn(S(=O)(=O)C5CNC5)c4)n3)cc2n1C(C)C [Example 467] came out at 0.00577

Just so you know, measured Ki for Cc1nc2cnc(Nc3ccnc(N4CCC(S(C)(=O)=O)CC4)n3)cc2n1C(C)C [Example 545] came out at 0.501

Just so you know, measured Ki for C[C@H](O)c1nc2cnc(Nc3ccnc(N4CC[C@@H](O)[C@@H](F)C4)n3)cc2n1[C@@H](C)C(F)(F)F [Example 685] came out at 0.0266

Just so you know, measured Ki for CC(C)n1c(C(C)(C)O)nc2cnc(Nc3ccnc(-c4cnn(S(=O)(=O)C5CC5)c4)n3)cc21 [Example 563] came out at 0.0111

Just so you know, measured Ki for CC(C)n1cc(-c2cn3c(n2)CNCC3)c2cnc(Nc3ccnc(-c4cnn(S(=O)(=O)C5CC5)c4)n3)cc21 [Example 442] came out at 0.00081
